Values from paper PMC8484168

Test: Plasma PK of rosuvastatin and oral contraceptives with and without rucaparib (phase 1 DDI study, noncompartmental analysis)
Type: in vivo, human
Details: human, plasma, po, 600 mg, with rucaparib 600 mg BID (day 19); single oral dose; plasma; read-out: AUC0–last, Mean (SD)
QUANTITY NAME: AUC(0-t) (ng·h/mL)

[1] C#C[C@]1(O)CC[C@H]2[C@@H]3CCC4=CC(=O)CC[C@@H]4[C@H]3CC[C@@]21CC [levonorgestrel]
[2] C#C[C@]1(O)CC[C@H]2[C@@H]3CCc4cc(O)ccc4[C@H]3CC[C@@]21C [ethinylestradiol]
[3] CC(C)c1nc(N(C)S(C)(=O)=O)nc(-c2ccc(F)cc2)c1/C=C/[C@@H](O)C[C@@H](O)CC(=O)O [rosuvastatin]
Query: rank_up(items): orders items by reported AUC(0-t) in ascending numerical order. Give the order by naming the labels one after another as requested.
Response: 2, 1, 3
(2: 1.24 ng·h/mL, 1: 86 ng·h/mL, 3: 266 ng·h/mL)
